TARGET OR TEST SYSTEM: panel of 255 wild-type kinases (Homo sapiens)
Sequence (Q96PY6 whole entry): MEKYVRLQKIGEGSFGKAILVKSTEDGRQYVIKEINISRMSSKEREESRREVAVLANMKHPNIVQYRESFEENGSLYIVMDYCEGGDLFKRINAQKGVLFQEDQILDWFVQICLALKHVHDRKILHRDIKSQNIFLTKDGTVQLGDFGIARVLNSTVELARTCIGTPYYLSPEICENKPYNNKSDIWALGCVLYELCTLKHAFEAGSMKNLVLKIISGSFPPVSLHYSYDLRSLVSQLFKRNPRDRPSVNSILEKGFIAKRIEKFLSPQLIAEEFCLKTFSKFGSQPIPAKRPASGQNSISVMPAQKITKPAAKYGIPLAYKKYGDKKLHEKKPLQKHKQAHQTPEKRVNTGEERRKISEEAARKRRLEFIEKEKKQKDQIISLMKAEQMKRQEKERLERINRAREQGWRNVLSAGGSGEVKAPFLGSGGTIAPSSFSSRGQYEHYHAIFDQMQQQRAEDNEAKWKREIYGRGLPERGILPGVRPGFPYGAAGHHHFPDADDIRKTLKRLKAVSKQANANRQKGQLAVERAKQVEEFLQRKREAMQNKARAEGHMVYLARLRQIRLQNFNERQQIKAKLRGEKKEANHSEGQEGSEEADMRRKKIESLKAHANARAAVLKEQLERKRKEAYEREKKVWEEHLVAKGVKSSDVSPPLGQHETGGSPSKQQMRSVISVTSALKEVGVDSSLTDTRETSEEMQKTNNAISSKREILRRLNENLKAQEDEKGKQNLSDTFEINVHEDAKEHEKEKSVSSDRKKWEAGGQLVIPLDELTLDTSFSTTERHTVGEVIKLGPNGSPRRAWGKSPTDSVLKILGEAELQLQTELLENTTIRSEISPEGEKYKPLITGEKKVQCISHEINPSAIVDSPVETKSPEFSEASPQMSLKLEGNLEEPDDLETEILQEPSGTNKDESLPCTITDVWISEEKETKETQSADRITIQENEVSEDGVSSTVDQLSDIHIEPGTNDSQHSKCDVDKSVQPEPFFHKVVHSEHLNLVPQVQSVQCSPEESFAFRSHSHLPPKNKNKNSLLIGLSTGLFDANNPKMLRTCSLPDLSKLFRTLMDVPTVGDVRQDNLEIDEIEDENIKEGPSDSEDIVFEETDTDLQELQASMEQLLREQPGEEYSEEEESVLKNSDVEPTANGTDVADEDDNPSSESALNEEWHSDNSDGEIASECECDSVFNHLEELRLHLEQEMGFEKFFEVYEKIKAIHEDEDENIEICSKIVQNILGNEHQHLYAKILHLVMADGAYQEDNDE
ASSAY PROCEDURE: Kinase panel profiling at 1 µmol/L (MSA or IMAP), percentage inhibition
Format: biochemical
EXPERIMENTAL PARAMETERS: NEK1; 1 µmol/L single concentration; read-out: %-inhibition, NEK1
OUTCOME MEASURE: inhibition at 1 µM (%)
One number for each entry, in %.

{"SMI": "COc1ccc(CN2C3CC2CN(c2ccc(-c4cc(OCC(C)(C)O)cn5ncc(C#N)c45)cn2)C3)cn1", "OUTCOME MEASURE": "inhibition at 1 µM", "UNIT SYMBOL": "%", "TEST RESULT": -0.568}
{"SMI": "Cn1cc(-c2cc3c(N4CCN(c5ncc([C@@](C)(N)c6ccc(F)cc6)cn5)CC4)ncnn3c2)cn1", "OUTCOME MEASURE": "inhibition at 1 µM", "UNIT SYMBOL": "%", "TEST RESULT": 56}
{"SMI": "CCN1C(=O)N(c2c(F)c(OC)cc(OC)c2F)Cc2cnc3[nH]c(CN4CCOCC4)cc3c21", "OUTCOME MEASURE": "inhibition at 1 µM", "UNIT SYMBOL": "%", "TEST RESULT": 10}
{"SMI": "Cn1cnc2c(F)c(Nc3ccc(Br)cc3Cl)c(C(=O)NOCCO)cc21", "OUTCOME MEASURE": "inhibition at 1 µM", "UNIT SYMBOL": "%", "TEST RESULT": -5}
{"SMI": "C[C@H](Nc1ncnc2nc[nH]c12)c1cc2cccc(Cl)c2c(=O)n1-c1ccccc1", "OUTCOME MEASURE": "inhibition at 1 µM", "UNIT SYMBOL": "%", "TEST RESULT": -3.74}

Please state, for each entry, its recorded inhibition at 1 µM.
1. CCn1c(=O)c(-c2cc(NC(=O)Nc3ccccc3)c(F)cc2Br)cc2cnc(NC)cc21
2. C[C@H]1Oc2cc(cnc2N)-c2c(nn(C)c2C#N)CN(C)C(=O)c2ccc(F)cc21

Result:
1: -1.3; 2: 0.741

Parameter requested: inhibition at 1 µM. Apply to each item below.
1. Cc1nc(NC(=O)N2CCC[C@H]2C(N)=O)sc1-c1ccnc(C(C)(C)C(F)(F)F)c1
2. Cc1cc(Nc2ncnc3ccc(NC4=NC(C)(C)CO4)cc23)ccc1Oc1ccn2ncnc2c1
3. FC(F)(F)c1ccc(CNc2ccc(Cc3c[nH]c4ncc(Cl)cc34)cn2)cn1
4. COC(=O)N[C@@H](C)CNc1nccc(-c2cn(C(C)C)nc2-c2cc(Cl)cc(NS(C)(=O)=O)c2F)n1
5. Cn1cnc2c(F)c(Nc3ccc(Br)cc3F)c(C(=O)NOCCO)cc21
6. CCN1CCN(c2ccc(Nc3cc(N(C)C(=O)Nc4c(Cl)c(OC)cc(OC)c4Cl)ncn3)cc2)CC1
7. C=CC(=O)N1CCC([C@@H]2CCNc3c(C(N)=O)c(-c4ccc(Oc5ccccc5)cc4)nn32)CC1

Result:
[-0.542, 1.77, -1.38, 2.84, -1.21, -5, -4]

Dear colleague, could you send me inhibition at 1 µM for each of the items below? Thanks.
1. O=C(Nc1cnn2ccc(N3CCC[C@@H]3c3cc(F)ccc3F)nc12)N1CC[C@H](O)C1
2. CO[C@]1(C(=O)N[C@@H](C)c2ccc(-n3cc(F)cn3)nc2)CC[C@H](c2nc(C)cc(Nc3cc(C)[nH]n3)n2)CC1

Result:
-2.72
-5

Sourced from paper PMC9516332
